Molecular target: Mouse PPAR-α (Mus musculus)
Sequence (P23204 239-466 limits assumed): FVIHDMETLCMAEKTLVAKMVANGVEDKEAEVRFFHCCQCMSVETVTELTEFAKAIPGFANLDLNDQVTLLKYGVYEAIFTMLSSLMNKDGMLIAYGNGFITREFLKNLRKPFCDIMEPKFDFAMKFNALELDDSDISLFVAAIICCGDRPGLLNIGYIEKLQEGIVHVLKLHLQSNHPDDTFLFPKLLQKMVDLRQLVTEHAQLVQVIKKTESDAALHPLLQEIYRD
Experiment: transactivation assay (GAL4 chimeric receptor, luciferase) in CV-1 cells
Details: CV-1 cells, GAL4 chimeric receptor, 24 hours
READOUT_LABEL: EC50 (µM)

- COMPOUND: "CCO[C@@H](Cc1ccc(OCc2sc(-c3ccc(-c4nnn(C)n4)cc3)cc2C)cc1)C(=O)O [Example 29]"
  READOUT_LABEL: "EC50"
  RECORDED_MEASUREMENT: 0.381
- COMPOUND: "CCO[C@@H](Cc1ccc(OCc2sc(-c3ccc(-c4csnn4)cc3)cc2C)cc1)C(=O)O [Example 24]"
  READOUT_LABEL: "EC50"
  RECORDED_MEASUREMENT: 4.93
- COMPOUND: "CCO[C@@H](Cc1ccc(OCc2sc(-c3ccc(-c4cc(C(C)(C)C)on4)cc3)cc2C)cc1)C(=O)O [Example 48]"
  READOUT_LABEL: "EC50"
  RECORDED_MEASUREMENT: 12.1
- COMPOUND: "CCO[C@@H](Cc1ccc(OCc2sc(-c3ccc(-c4cc(C)no4)cc3)cc2C)cc1)C(=O)O [Example 41]"
  READOUT_LABEL: "EC50"
  RECORDED_MEASUREMENT: 6.16
- COMPOUND: "CCO[C@@H](Cc1ccc(OCc2sc(-c3ccc(-c4cc(COC)on4)cc3)cc2C)cc1)C(=O)O [Example 36]"
  READOUT_LABEL: "EC50"
  RECORDED_MEASUREMENT: 4.3
- COMPOUND: "CCO[C@@H](Cc1ccc(OCc2sc(-c3ccc(-c4nc(C)c(C)o4)cc3)cc2C)cc1)C(=O)O [Example 34]"
  READOUT_LABEL: "EC50"
  RECORDED_MEASUREMENT: 3.44
- COMPOUND: "CCO[C@@H](Cc1ccc(OCc2sc(-c3ccc(-c4noc(C)n4)cc3)cc2C)cc1)C(=O)O [Example 25]"
  READOUT_LABEL: "EC50"
  RECORDED_MEASUREMENT: 0.443
